Values from paper PMC6792352

- Tested on: GH3-TRE-Luc cell line
- Condition details: read-out: AC50 (uM) modified / 1000; Tox21_110001=Tox21_110838; viability, 1 nM T3 present, 24 h
Value kind: CC50 (µM)
Write the number in µM without appending the unit.

Noted CC50 for O=C1OC(c2ccc(O)cc2)(c2ccc(O)cc2)c2ccccc21 , tested on GH3-TRE-Luc cell line: 16.8

* * *

- Test system: GH3-TRE-Luc cell line
- Condition details: read-out: AC50 (uM) modified / 1000; Tox21_110001=Tox21_300486; viability, 1 nM T3 present, 24 h
Value kind: CC50 (µM)
Write the number in µM without appending the unit.

// field: CC50; key: Cc1ccc(C(C)(C)C)c(O)c1 ; value = 47.9
